# assay_overview: Cytotoxicity test (MTT)
# Assay type: cell-based, mouse
# condition_parameters: L929 mouse fibroblast cells, 48 h, MTT
# Method: The cytotoxic effects of the benzimidazole derivatives and AmpB were determined using the L929 cell line (American Type Culture Collection, Manassas, VA, USA). […] Cytotoxic activity was evaluated using the same concentrations applied in the antileishmanial activity assessment. […] Cell viability was determined using the 3-(4.5-dimethylthiazol-2-yl)-2.5-diphenyltetrazolium bromide) (Sigma, Kawasaki, Japan) method. […] CC50 values were determined using GraphPad Prism version 8.4.2. […]
Recorded CC50 at 48 h, one value per entry.

{"columns": ["molecule", "CC50 at 48 h"],
 "data": [
  ["CC(=O)c1nc2ccccc2n1CC(=O)c1cccc(Cl)c1 [K1]", "250 µg/mL"],
  ["Cc1nc(-c2ccc(Cl)cc2)cn2c1nc1ccccc12 [K4]", "292 µg/mL"],
  ["Cc1nc(-c2ccccc2)cn2c1nc1ccccc12 [K3]", "0.56 µg/mL"],
  ["Cc1nc(-c2cccc(Cl)c2)cn2c1nc1ccccc12 [K2]", "63 µg/mL"]
]}
